# Test system: lambsquarters (Chenopodium album)
# Protocol summary: Test B preemergence
# Type: in vivo
# Condition details: preemergence; Rate 125 g/ha; scale of 0 to 100 where 0 is no effect and 100 is complete control; 13 to 15 days
Value type: Plant response rating, Lambsquarters
Simply state the number, no unit and no words.

Note down Plant response rating, Lambsquarters recorded for COc1cccc(N2CCC(n3ccc(C(C)(C)C)n3)C2=O)c1 (stereo not drawn)
100

* * *

# Test system: barnyardgrass (Echinochloa crus-galli)
# Protocol summary: Test B preemergence
# Type: in vivo
# Condition details: preemergence; Rate 125 g/ha; scale 0 to 100, 0 no effect, 100 complete control
Value type: Plant response rating, Barnyardgrass
Number, no unit, nothing else.

Use the examples below as a reference point.
INSERT INTO measurements (molecule, recorded_measurement) VALUES
  ('O=C1C(n2ccc(C3CC3)n2)CCN1c1cccc(C(F)(F)F)c1 (stereo not shown)', 0),
  ('CC(C)(C)c1ccn(C2SCN(c3cccc(OC(F)F)c3)C2=O)n1 (stereo not shown)', 100),
  ('CC(C)(C)c1nn(C2CCN(c3cccc(C(F)(F)F)c3)C2=O)cc1Cl (stereo not shown)', 0),
  ('CC(C)(C)c1ccn(C2CCN(c3cccc(C(F)(F)F)c3)C2=S)n1 (stereo not shown)', 0),
  ('CCC(C)c1ccn(C2SCN(c3cccc(C(F)(F)F)c3)C2=O)n1 (stereo not shown)', 0);

Supply recorded Plant response rating, Barnyardgrass for O=C1C(n2ccc(C3CCC3)n2)OCN1c1cccc(C(F)(F)F)c1 (stereo not shown) here.
50

Give the measured Plant response rating, Barnyardgrass for CC(C)(C)c1ccn(C2CCN(c3cccc(Cl)c3)C2=O)n1 (stereo not shown)
60

From: patent US7138361B2
